Values from paper PMC9506044

Provide the recorded AUC(0-t) for the entries that follow.
# EXPERIMENT: Pharmacokinetic study in rats after oral and intravenous administration of PTD (UPLC-MS/MS, plasma)
# Type: in vivo
# TEST_PARAMETERS: Sprague-Dawley, po; rat plasma, intragastric administration of PTD 27.3 mg/kg
Use ng·h/mL as the unit, but write only the number.

Q: Form field: reported AUC(0-t) of OCC1OC(Oc2ccc3c(c2)OCC(O)(CO)Cc2cc(O)c(O)cc2-3)C(O)C(O)C1O [PTD, protosappanin B-3-O-β-D-glucoside]
Result: 382

Q: Recorded AUC(0-t) for OCC1(O)COc2cc(O)ccc2-c2cc(O)c(O)cc2C1 (centres unmarked) [PTB, protosappanin B, reference compound] , please?
Result: 179
